biological target: IL-17A (Homo sapiens); assay: Inhibition of IL-17A induced IL-6 release from dermal fibroblast cell line (HDF cell line assay); details: HDF cells stimulated with IL-17A 50 pM + TNF-α 25 pM; IL-6 release measured by HTRF
Sequence (Q16552 24-155): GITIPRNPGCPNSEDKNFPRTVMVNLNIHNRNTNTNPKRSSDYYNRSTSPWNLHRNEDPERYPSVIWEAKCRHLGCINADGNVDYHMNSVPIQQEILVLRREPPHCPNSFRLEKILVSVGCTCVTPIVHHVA
Record form. Attribute: log10(IC50). Fill in for each entry.
Reminder: these figures are log10 of reported IC50, in nM before transformation.

Q: Give the reported value of log10(IC50) for this record: CC(C)n1ncnc1C(=O)N[C@H](c1cn2ncc(C(CC(F)F)C(=O)NCC(F)(F)F)cc2n1)C1CCC(F)(F)CC1 (stereo partly shown) [Example 8]
Ans: 2.20

Q: Output measured log10(IC50) for this item: CC(C)n1nccc1C(=O)N[C@H](c1cn2ncc(C(CC(F)F)C(=O)NCC(F)(F)F)cc2n1)C1CCC(F)(F)CC1 (stereo partly shown) [Example 7]
Ans: 1.40

Q: Consider the molecule Cc1nonc1C(=O)N[C@H](c1cn2ncc(C3(C(=O)NCC(F)(F)F)CCC(F)(F)CC3)cc2n1)C1CCC(F)(F)CC1 [Example 9] and give its recorded log10(IC50).
Ans: 1.80

Q: Provide only the value of recorded log10(IC50) for CNC(=O)[C@H](NC(=O)C(CC(F)F)c1cnn2cc([C@@H](NC(=O)c3nonc3C)C3CCC(F)(F)CC3)nc2c1)C(C)C (stereo partly shown) [Example 2]
Ans: 1.00

Q: Could you please provide reported log10(IC50) for CCc1nonc1C(=O)N[C@H](c1cn2ncc(C(CC(F)F)C(=O)NCC(F)(F)F)cc2n1)C1CCC(F)(F)CC1 (stereo partly shown) [Example 5] ? Thanks!
Ans: 1.30

Q: Read off the recorded log10(IC50) for Cc1nonc1C(=O)N[C@H](c1cn2ncc(C3CC(F)(F)CCN3C(=O)C34CC(F)(C3)C4)cc2n1)C1CCC(F)(F)CC1 (single isomer, unassigned) [Example 16]
Ans: 1.40

Q: Answer with the recorded log10(IC50) for the molecule listed here: Cc1nonc1C(=O)N[C@H](c1cn2ncc(C(CC(F)F)c3nnnn3CC(F)(F)F)cc2n1)C1CCC(F)(F)CC1 (single isomer, unassigned) [Example 15]
Ans: 1.30

Q: Please list log10(IC50) recorded for the molecule Cc1nonc1C(=O)N[C@H](c1cn2ncc(C3(C(=O)NCC(C)(F)F)CCOCC3)cc2n1)C1CCC(F)(F)CC1 [Example 14]
Ans: 1.80

Q: Look up log10(IC50) of Cc1nonc1C(=O)NC(c1cn2ncc(C(CC(F)F)C(=O)NCC(F)(F)F)cc2n1)C(C1CC1)C1CC1 (stereo not shown) [Example 11] and report it.
Ans: 2.50

Q: Answer with the recorded log10(IC50) of Cc1nonc1C(=O)N[C@H](c1cn2ncc(C(CC(F)F)c3nnc4ccc(F)cn34)cc2n1)C1CCC(F)(F)CC1 (single isomer, unassigned) [Example 12] only.
Ans: 1.50

Q: Identify log10(IC50) associated with the molecule Cc1nonc1C(=O)N[C@H](c1cn2ncc(C(CC(F)F)C(=O)NCC(F)(F)F)cc2n1)C1CCC(F)(F)CC1 (stereo partly shown) [Example 1]
Ans: 1.60

Q: Specify measured log10(IC50) for CC(F)(F)CNC(=O)C1(c2cnn3cc([C@@H](NC(=O)c4nonc4C4CC4)C4CCC(F)(F)CC4)nc3c2)CCOCC1 [Example 17] .
Ans: 0.80

Q: Provide only the value of recorded log10(IC50) for Cc1nonc1C(=O)N[C@H](c1cn2ncc(C3CN(C4COC4)CC3C(=O)N3CC(F)(F)C(F)(F)C3)cc2n1)C1CCC(F)(F)CC1 (single isomer, unassigned) [Example 13]
Ans: 1.40
